Cited source for all entries: patent US7354734B2

molecular target: ruLAP2 (Trichophyton rubrum, UniProt Q5QHG6); assay type: biochemical; conditions: cation salt 1 mM, Leu-MCA substrate, 15 min pre-incubation
Sequence (Q5QHG6 20-495): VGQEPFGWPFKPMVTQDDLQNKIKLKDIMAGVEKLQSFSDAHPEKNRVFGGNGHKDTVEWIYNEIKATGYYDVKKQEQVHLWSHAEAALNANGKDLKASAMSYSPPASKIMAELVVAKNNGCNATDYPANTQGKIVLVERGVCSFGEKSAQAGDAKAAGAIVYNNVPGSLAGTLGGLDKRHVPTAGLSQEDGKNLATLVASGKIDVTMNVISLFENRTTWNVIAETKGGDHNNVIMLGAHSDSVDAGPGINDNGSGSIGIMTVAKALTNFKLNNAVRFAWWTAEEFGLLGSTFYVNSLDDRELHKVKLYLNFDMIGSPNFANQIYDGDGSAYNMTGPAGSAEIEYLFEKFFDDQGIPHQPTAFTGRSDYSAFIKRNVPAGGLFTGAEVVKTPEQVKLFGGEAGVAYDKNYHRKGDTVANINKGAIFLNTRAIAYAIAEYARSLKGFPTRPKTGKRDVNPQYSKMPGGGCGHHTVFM
ruLAP2 activity as percentage of control reaction without any cation listing for selected compounds.
Could you give me the number in %? Just the number is fine.

In the examples that follow, each entry is paired with its recorded ruLAP2 activity as percentage of control reaction without any cation.
Exam item: Specify measured ruLAP2 activity as percentage of control reaction without any cation for [Ca+2].[Cl-].[Cl-] .
Marked response: 141.9

Exam item: Specify measured ruLAP2 activity as percentage of control reaction without any cation for [Cl][Ni][Cl] .
Marked response: 147.9

Exam item: Specify measured ruLAP2 activity as percentage of control reaction without any cation for [Cl-].[Cl-].[Zn+2] .
Marked response: 88.9

Next:
Exam item: Specify measured ruLAP2 activity as percentage of control reaction without any cation for [Cl][Mn][Cl] .
Marked response: 86.8

Exam item: Specify measured ruLAP2 activity as percentage of control reaction without any cation for [Cl][Cu][Cl] .
Marked response: 34.7

Exam item: Specify measured ruLAP2 activity as percentage of control reaction without any cation for [Cl-].[Cl-].[Co+2] .
Marked response: 789.7

Exam item: Specify measured ruLAP2 activity as percentage of control reaction without any cation for [Cl-].[Cl-].[Mg+2] .
Marked response: 110.2
